Molecular target: cytochrome P450 2C9 (Homo sapiens)
Sequence (P11712 whole entry): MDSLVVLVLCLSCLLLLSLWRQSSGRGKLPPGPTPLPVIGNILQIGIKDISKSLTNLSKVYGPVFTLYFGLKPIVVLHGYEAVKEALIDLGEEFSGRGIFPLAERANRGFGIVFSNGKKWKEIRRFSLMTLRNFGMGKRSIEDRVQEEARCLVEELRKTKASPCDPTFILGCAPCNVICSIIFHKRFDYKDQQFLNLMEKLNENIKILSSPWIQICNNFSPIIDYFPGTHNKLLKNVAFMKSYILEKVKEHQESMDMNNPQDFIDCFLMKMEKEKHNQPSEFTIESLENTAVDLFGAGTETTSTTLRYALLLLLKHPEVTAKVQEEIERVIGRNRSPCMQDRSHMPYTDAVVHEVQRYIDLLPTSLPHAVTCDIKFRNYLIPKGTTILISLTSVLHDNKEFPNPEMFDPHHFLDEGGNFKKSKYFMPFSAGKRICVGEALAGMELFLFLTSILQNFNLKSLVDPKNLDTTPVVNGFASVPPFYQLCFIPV
pIC50: −log10 of the molar value.
Reported pIC50 by item:
Recorded endpoint: pIC50

Compound	Comparison sign	Measured number
Fc1cc(F)c(F)c(-c2ccc(N[C@H]3C[C@@H]4CN(Cc5ccccn5)C[C@@H]4C3)nn2)c1	<	4.52
Fc1cc(F)c(F)c(-c2ccc(N[C@H]3C[C@@H]4CN(CC5CCOCC5)C[C@@H]4C3)nn2)c1	=	5.01
Fc1ccc(Cl)c(-c2ccc(N[C@H]3C[C@@H]4CN(Cc5ccccn5)C[C@@H]4C3)nn2)c1 [reference compound]	=	4.99
Fc1ccc(Cl)c(-c2ccc(N[C@H]3C[C@@H]4CN(CC5CCOCC5)C[C@@H]4C3)nn2)c1 [reference compound]	=	6.82
